Provenance of the data: paper PMC3875306

I'd appreciate it if you could supply LLE (ligand-lipophilicity efficiency) values for the items below.
# Target Under Test: human mGlu1 (Homo sapiens, UniProt Q13255)
# Sequence (Q13255 19-1194): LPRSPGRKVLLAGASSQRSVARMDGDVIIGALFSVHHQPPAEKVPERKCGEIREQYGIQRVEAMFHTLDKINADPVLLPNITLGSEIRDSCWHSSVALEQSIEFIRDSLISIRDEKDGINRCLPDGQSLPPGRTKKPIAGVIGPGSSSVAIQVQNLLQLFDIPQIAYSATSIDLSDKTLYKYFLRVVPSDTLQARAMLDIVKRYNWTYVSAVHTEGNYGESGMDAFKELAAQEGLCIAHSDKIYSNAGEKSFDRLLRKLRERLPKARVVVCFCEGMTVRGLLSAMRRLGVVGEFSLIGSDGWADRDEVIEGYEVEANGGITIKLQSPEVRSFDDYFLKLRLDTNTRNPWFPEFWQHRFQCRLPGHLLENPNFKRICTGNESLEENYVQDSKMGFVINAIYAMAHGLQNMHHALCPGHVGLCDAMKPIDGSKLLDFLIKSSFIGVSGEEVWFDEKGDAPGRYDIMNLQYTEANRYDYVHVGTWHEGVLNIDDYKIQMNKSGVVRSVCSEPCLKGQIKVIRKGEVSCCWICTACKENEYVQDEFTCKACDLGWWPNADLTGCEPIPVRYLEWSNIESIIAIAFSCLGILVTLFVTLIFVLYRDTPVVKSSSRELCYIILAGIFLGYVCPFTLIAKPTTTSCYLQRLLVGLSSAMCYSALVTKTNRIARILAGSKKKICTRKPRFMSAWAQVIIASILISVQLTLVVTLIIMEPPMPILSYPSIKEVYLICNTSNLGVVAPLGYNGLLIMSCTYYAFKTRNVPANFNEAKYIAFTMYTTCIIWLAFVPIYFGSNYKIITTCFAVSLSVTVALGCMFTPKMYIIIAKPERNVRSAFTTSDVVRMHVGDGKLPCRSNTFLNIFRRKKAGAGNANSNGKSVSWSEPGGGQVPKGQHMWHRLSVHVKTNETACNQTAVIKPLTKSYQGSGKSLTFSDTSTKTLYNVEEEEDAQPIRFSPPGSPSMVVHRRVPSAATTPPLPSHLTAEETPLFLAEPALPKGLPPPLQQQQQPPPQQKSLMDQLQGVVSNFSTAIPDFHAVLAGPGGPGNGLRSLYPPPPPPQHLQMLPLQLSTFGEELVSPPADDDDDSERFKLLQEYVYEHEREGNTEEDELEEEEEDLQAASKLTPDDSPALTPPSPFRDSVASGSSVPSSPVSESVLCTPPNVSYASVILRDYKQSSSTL
# Test Description: Calcium mobilization mGlu1 assay
# Measurement Conditions: LLE = pIC50 - cLogP
Numbers only.

| Smiles String | Test Value |
| --- | --- |
| C[C@@H]1CN(c2cccc(F)n2)CCN1C(=O)C12CC3CC(CC(C3)C1)C2 | 1.85 |
| C[C@@H]1CN(c2ccc(F)cn2)CCN1C(=O)C12CC3CC(CC(C3)C1)C2 | 1.73 |

Would you be so kind as to report LLE (ligand-lipophilicity efficiency) for each listed record?
1. C[C@@H]1CN(c2ccccc2C#N)CCN1C(=O)C12CC3CC(CC(C3)C1)C2
2. C[C@@H]1CN(c2ccncc2C#N)CCN1C(=O)C12CC3CC(CC(C3)C1)C2

Result:
[1.82, 2.89]

Ask: Can you look up the measured LLE (ligand-lipophilicity efficiency) of C[C@@H]1CN(c2ncccc2C#N)CCN1C(=O)C12CC3CC(CC(C3)C1)C2 for me?
Result: 2.24
